Entry source: PubChem BioAssay (NCI)

- System: HCC-2998 colon
- TEST_PROTOCOL: NCI tumour cell line growth inhibition, 48 h
I'd be grateful if you could share measured TGI for these entries.

>  <COMPOUND>
CCN(CC)CCOc1ccc2c(-c3ccccc3)c(-c3ccc(OC)cc3)c(=O)oc2c1

>  <RESULT>
15 µM

$$$$
>  <COMPOUND>
CN1C(=O)C(O)CC1c1ccccc1F (stereo not given)

>  <RESULT>
> 100 µM

$$$$

Your task in this section: give TGI for each listed record.
1. CC(C)(C)OC(=O)NC(Cc1ccc(OC(C)(C)C)cc1)C(=O)N[C@H]1CC[C@H](C(=O)O)C1 (stereo not given in full)
2. N=C1C(c2nc3ccccc3c(=O)[nH]2)=C(O)CN1c1cccc(Cl)c1

Given back:
["> 100 µM", "> 100 µM"]
